- measurement-description: Cytotoxicity against mouse B16F10 cells assessed as cell viability at 20 ug/ml after 72 hrs by micro-culture MTT assay
- Format: cell-based, B16-F10
- experimental-setup: read-out: Activity
Rule: viability at 72 h, 20 ug/ml below 70% gives label 1, anything at or above gives label 0.

IN: Say whether its viability at 72 h, 20 ug/ml is strictly beneath 70%. Entry: CC(=O)Oc1c(/N=N/c2ccc(C3=N/C(=C/c4ccc(OC(F)(F)F)cc4)C(=O)O3)cc2)ccc2ccccc12
OUT: label 0

IN: Say whether its viability at 72 h, 20 ug/ml is strictly beneath 70%. Entry: CC(=O)Oc1ccc2ccccc2c1/N=N/c1ccc(C2=N/C(=C/c3ccc(F)cc3)C(=O)O2)cc1
OUT: label 1

IN: Say whether its viability at 72 h, 20 ug/ml is strictly beneath 70%. Entry: CN(C)c1ccc(/N=N/c2ccc(C3=N/C(=C/c4ccc(OC(F)(F)F)cc4)C(=O)O3)cc2)cc1
OUT: label 1
